Attribution: paper PMC11070930

Target: PARP1 (Homo sapiens)
Sequence (P09874 whole entry): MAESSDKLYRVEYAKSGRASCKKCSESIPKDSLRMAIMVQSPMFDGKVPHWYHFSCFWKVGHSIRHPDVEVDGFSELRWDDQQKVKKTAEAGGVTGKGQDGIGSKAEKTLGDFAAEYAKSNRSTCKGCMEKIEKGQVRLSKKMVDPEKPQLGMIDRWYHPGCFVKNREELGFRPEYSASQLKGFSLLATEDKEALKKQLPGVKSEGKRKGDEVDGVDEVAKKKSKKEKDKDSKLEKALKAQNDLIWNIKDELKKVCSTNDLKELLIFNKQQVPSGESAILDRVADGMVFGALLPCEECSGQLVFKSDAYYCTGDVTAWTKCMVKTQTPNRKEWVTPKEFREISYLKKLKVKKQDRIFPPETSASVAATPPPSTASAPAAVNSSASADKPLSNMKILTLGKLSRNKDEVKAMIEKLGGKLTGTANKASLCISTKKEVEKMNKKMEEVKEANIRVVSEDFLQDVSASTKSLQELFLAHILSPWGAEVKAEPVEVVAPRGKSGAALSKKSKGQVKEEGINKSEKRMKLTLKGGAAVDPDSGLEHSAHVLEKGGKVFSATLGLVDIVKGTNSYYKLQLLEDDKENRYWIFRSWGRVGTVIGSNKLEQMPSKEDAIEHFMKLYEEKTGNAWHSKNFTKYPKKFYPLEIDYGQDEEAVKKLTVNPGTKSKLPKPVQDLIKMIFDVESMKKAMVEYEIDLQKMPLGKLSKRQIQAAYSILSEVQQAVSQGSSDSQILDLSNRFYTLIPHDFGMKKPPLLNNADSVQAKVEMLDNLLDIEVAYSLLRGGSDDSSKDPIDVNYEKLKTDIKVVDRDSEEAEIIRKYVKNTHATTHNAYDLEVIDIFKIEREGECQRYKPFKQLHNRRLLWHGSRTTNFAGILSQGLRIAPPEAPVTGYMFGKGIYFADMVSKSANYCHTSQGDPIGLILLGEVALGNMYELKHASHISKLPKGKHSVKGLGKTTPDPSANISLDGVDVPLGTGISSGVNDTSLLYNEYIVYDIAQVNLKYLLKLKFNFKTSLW
Assay: PARP1 enzyme inhibition assay
Type: biochemical
Measurement kind: IC50 (nM)

Molecule: NC(=O)c1cccc2[nH]c(-c3ccc(C(=O)N4CCN(c5ncccn5)CC4)cc3)nc12 [Compound 4]
Operator: =
Reported: 11.9

Molecule: NC(=O)c1cccc2[nH]c(-c3ccc(C(=O)NCCc4nc5ccccc5[nH]4)cc3)nc12 [Compound 10]
Operator: =
Reported: 3.1

Molecule: COC(=O)c1cnc(N2CCN(C(=O)c3ccc(-c4nc5c(C(N)=O)cccc5[nH]4)cc3)CC2)nc1 [UKTT15 (6)]
Operator: =
Reported: 2.8

Molecule: NC(=O)c1cccc2[nH]c(-c3ccc(C(=O)N4CCN(c5nc6ccccc6[nH]5)CC4)cc3)nc12 [Compound 8]
Operator: =
Reported: 6.2

Molecule: NC(=O)c1cccc2[nH]c(-c3cccc(C(=O)NCCc4nc5ccccc5[nH]4)c3)nc12 [Compound 11]
Operator: =
Reported: 121

Molecule: NC(=O)c1cccc2[nH]c(-c3cccc(C(=O)N4CCN(c5ncccn5)CC4)c3)nc12 [Compound 5]
Operator: =
Reported: 8.9

Molecule: Cc1cc(N)c(NC(=O)c2cccc(-c3nc4c(C(N)=O)cccc4[nH]3)c2)cc1C [Compound 14]
Operator: =
Reported: 17.3

Molecule: NC(=O)c1cccc2[nH]c(-c3cccc(C(=O)N4CCN(c5nc6ccccc6[nH]5)CC4)c3)nc12 [Compound 9]
Operator: =
Reported: 3.9

Molecule: NC(=O)c1cccc2[nH]c(-c3ccc(C(=O)N4CCN(c5ncc(C(=O)O)cn5)CC4)cc3)nc12 [Compound 7]
Operator: >
Reported: 10

====

Biological target: UniProt:P09874
Assay: PARP1 enzyme inhibition assay
Format: biochemical
Conditions: read-out: PARP1 IC50; 10-point concentration-response curve; average of at least two independent experiments
pIC50: −log10 of the molar value.

Substance smiles: NC(=O)c1cccc2[nH]c(-c3ccc(C(=O)N4CCn5c(nnc5C(F)(F)F)C4)cc3)nc12
pIC50: 7.60
--
Substance smiles: NC(=O)c1cccc2[nH]c(-c3cccc(C(=O)N4CCn5c(nnc5C(F)(F)F)C4)c3)nc12
pIC50: 7.60
